This collection of values is drawn from patent US7781591B2.

SUBJECT OF TEST: human PKCθ full length enzyme (Homo sapiens, UniProt Q04759)
Construct: human PKCθ full length enzyme (Panvera Cat# P2996); purchased Panvera P2996
Sequence (Q04759 whole entry): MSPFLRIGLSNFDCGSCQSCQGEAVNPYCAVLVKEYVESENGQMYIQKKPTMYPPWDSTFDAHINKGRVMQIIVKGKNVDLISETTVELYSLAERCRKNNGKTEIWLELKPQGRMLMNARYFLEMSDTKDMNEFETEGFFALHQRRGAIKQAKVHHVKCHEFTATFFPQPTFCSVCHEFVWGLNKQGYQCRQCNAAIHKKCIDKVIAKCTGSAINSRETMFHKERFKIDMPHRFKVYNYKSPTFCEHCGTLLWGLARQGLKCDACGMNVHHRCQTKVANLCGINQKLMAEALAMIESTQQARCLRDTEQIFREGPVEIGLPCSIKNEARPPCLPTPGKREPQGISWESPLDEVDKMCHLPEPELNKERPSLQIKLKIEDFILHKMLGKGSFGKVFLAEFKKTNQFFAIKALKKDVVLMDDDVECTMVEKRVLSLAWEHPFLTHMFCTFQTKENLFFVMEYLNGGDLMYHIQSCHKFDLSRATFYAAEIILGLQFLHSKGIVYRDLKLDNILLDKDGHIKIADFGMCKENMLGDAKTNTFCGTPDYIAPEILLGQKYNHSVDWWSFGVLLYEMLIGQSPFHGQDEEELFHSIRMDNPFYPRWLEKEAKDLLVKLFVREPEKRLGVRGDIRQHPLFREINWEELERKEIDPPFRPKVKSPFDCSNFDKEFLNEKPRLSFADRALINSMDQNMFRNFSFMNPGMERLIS
PROTOCOL DESCRIPTION: PKCθ IMAP assay (fluorescence polarization)
Assay type: biochemical
STATED CONDITIONS: human PKCθ full length enzyme, IMAP; average value; read-out: IC50 PKCθ IMAP
ENDPOINT LABEL: IC50 (nM)

As a guide, the following entries are already answered.
>  <SMILES>
COCCNCCOc1cc(-c2cncc(C#N)c2Nc2ccc3[nH]ccc3c2)ccc1OC

>  <IC50 [nM]>
120

$$$$
>  <SMILES>
N#Cc1cncc(-c2cccc(Br)c2)c1Nc1cccc2c1CC(=O)N2

>  <IC50 [nM]>
540

$$$$
>  <SMILES>
CCCCNC(=O)c1ccc(-c2cccc(-c3cncc(C#N)c3Nc3cccc4[nH]ccc34)c2)cc1

>  <IC50 [nM]>
60

$$$$
>  <SMILES>
COc1ccc(-c2cncc(C#N)c2Nc2cc3cc[nH]c3cc2C)cc1OC

>  <IC50 [nM]>
10

$$$$
>  <SMILES>
COc1ccc(-c2cncc(C#N)c2Nc2ccc3[nH]ccc3c2)cc1OCCN(C(C)C)C(C)C

>  <IC50 [nM]>
690

$$$$

A. COc1ccc(-c2cncc(C#N)c2Nc2ccc3[nH]ccc3c2)cc1OCCNCc1cccnc1
B. Cc1c(Nc2c(C#N)cncc2-c2cc3cc(CN4CCN(CCN(C)C)CC4)ccc3o2)ccc2[nH]ccc12
C. Cc1c(Nc2c(C#N)cncc2-c2ccc(N3CCOCC3)nc2)ccc2[nH]ccc12
Your job: order these 3 records by IC50, ascending. Give the labels in the order requested. B, C, A
(B: 2 nM, C: 30 nM, A: 80 nM)
